- Test description: total protein half-life in vivo (active degradation + dilution); higher = more stable protein
- Test settings: wild type E. coli NCM3722; growth: P-lim chemostat; doubling time 6 h
Reported endpoint: total protein half-life in vivo (h)
Report as a plain number; the unit h is understood.

Consider the sequence shown here: `MGLPPLSKIPLILRPQAWLHRRHYGEVLSPIRWWGRIPFIFYLVSMFVGWLERKRSPLDPVVRSLVSARIAQMCLCEFCVDITSMKVAERTGSSDKLLAVADWRQSPLFSDEERLALEYAEAASVTPPTVDDALRTRLAAHFDAQALTELTALIGLQNLSARFNSAMDIPAQGLCRIPEKRS` What is its recorded total protein half-life in vivo? 6.48

Consider the sequence shown here: `MLAKRIIPCLDVRDGQVVKGVQFRNHEIIGDIVPLAKRYAEEGADELVFYDITASSDGRVVDKSWVSRVAEVIDIPFCVAGGIKSLEDAAKILSFGADKISINSPALADPTLITRLADRFGVQCIVVGIDTWYDAETGKYHVNQYTGDESRTRVTQWETLDWVQEVQKRGAGEIVLNMMNQDGVRNGYDLEQLKKVREVCHVPLIASGGAGTMEHFLEAFRDADVDGALAASVFHKQIINIGELKAYLATQGVEIRIC` What is its recorded total protein half-life in vivo? 5.64

Consider the sequence shown here: `MAQITTTDANEFSSSAEFIPMRGFSNCHLQTMLPRLFRRQVKFTPYWQRLELPDGDFVDLAWSENPAQAQHKPRLVVFHGLEGSLNSPYAHGLVEAAQKRGWLGVVMHFRGCSGEPNRMHRIYHSGETEDASWFLRWLQREFGHAPTAAVGYSLGGNMLACLLAKEGNDLPVDAAVIVSAPFMLEACSYHMEKGFSRVYQRYLLNLLKANAARKLAAYPGTLPINLAQLKSVRRIREFDDLITARIHGYADAIDYYRQCSAMPMLNRIAKPTLIIHAKDDPFMDHQVIPKPESLPPQVEYQLTEHGGHVGFIGGTLLHPQMWLESRIPDWLTTYLEAKSC` What is its recorded total protein half-life in vivo? 2.34

Consider the sequence shown here: `MINDIKWVQAQRKATDWRQAVEIATRPLVAYGAAQPCYVNGIIENTLNWGPYYLIAPGIALPHARPEQGANYNQVSITTLRTPVAFGNEECDPVWLLLCVSATDANAHILTIQRISQFIDSPQRLTAVGNASTDDALFALVSG` What is its recorded total protein half-life in vivo? 6.04

Consider the sequence shown here: `MIDFGNFYSLIAKNHLSHWLETLPAQIANWQREQQHGLFKQWSNAVEFLPEIKPYRLDLLHSVTAESEEPLSAGQIKRIETLMRNLMPWRKGPFSLYGVNIDTEWRSDWKWDRVLPHLSDLTGRTILDVGCGSGYHMWRMIGAGAHLAVGIDPTQLFLCQFEAVRKLLGNDQRAHLLPLGIEQLPALKAFDTVFSMGVLYHRRSPLEHLWQLKDQLVNEGELVLETLVIDGDENTVLVPGDRYAQMRNVYFIPSALALKNWLKKCGFVDIRIADVSVTTTEEQRRTEWMVTESLADFLDPHDPGKTVEGYPAPKRAVLIARKP` What is its recorded total protein half-life in vivo? 5.89

Consider the sequence shown here: MRTVLNILNFVLGGFATTLGWLLATLVSIVLIFTLPLTRSCWEITKLSLVPYGNEAIHVDELNPAGKNVLLNTGGTVLNIFWLIFFGWWLCLMHIATGIAQCISIIGIPVGIANFKIAAIALWPVGRRVVSVETAQAAREANARRRFE [P0AB12] What is its recorded total protein half-life in vivo? 5.98

* * *

- Test description: total protein half-life in vivo (active degradation + dilution); higher = more stable protein
- Test settings: wild type E. coli NCM3722; growth: C-lim chemostat; doubling time 12 h
Could you please report measured total protein half-life in vivo for the items listed next?
Report as a plain number; the unit h is understood.

Consider the sequence shown here: `MRYHGDMLLTTPVISTLKQNYPDAKIDMLLYQDTIPILSENPEINALYGISNKGAGTFDKIKNVLSLIKTLRANNYDLVINLTDQWMVALLVRCLPARMKISQLYGHRQHGIWKKSFTHLAPIHGTHIVERNLSVLEPLGITDFYTDTTMSYAEDCWKKMRRELDALGVKDHYVVIQPTARQIFKCWDNDKFSKVIDALQQRGYQVVLTCGPSADDLACVDEIARGCETKPITGLAGKTRFPELGALIDHAVLFIGVDSAPGHIAAAVKTPVISLFGATDHVFWRPWTENIIQFWAGNYQKMPTRHELDRNKKYLSVIPAEDVIAATEKLLPEDAPSADRNAQL` What is its recorded total protein half-life in vivo? 11.7

Consider the sequence shown here: `MKKVLLIILLLLVVLGIAAGVGVWKVRHLADSKLLIKEETIFTLKPGTGRLALGEQLYADKIINRPRVFQWLLRIEPDLSHFKAGTYRFTPQMTVREMLKLLESGKEAQFPLRLVEGMRLSDYLKQLREAPYIKHTLSDDKYATVAQALELENPEWIEGWFWPDTWMYTANTTDVALLKRAHKKMVKAVDSAWEGRADGLPYKDKNQLVTMASIIEKETAVASERDKVASVFINRLRIGMRLQTDPTVIYGMGERYNGKLSRADLETPTAYNTYTITGLPPGAIATPGADSLKAAAHPAKTPYLYFVADGKGGHTFNTNLASHNKSVQDYLKVLKEKNAQ` What is its recorded total protein half-life in vivo? 12.7

Consider the sequence shown here: MAVQKNVIKGILAGTFALMLSGCVTVPDAIKGSSPTPQQDLVRVMSAPQLYVGQEARFGGKVVAVQNQQGKTRLEIATVPLDSGARPTLGEPSRGRIYADVNGFLDPVDFRGQLVTVVGPITGAVDGKIGNTPYKFMVMQVTGYKRWHLTQQVIMPPQPIDPWFYGGRGWPYGYGGWGWYNPGPARVQTVVTE [P0AA91] What is its recorded total protein half-life in vivo? 10.7

* * *

- Test description: total protein half-life in vivo (active degradation + dilution); higher = more stable protein
- Test settings: E. coli NCM3722 delta-clpP; growth: N-lim chemostat; doubling time 6 h
Reported endpoint: total protein half-life in vivo
Please provide the amount together with its unit, number first.

Consider the sequence shown here: `MKVLTVFGTRPEAIKMAPLVHALAKDPFFEAKVCVTAQHREMLDQVLKLFSIVPDYDLNIMQPGQGLTEITCRILEGLKPILAEFKPDVVLVHGDTTTTLATSLAAFYQRIPVGHVEAGLRTGDLYSPWPEEANRTLTGHLAMYHFSPTETSRQNLLRENVADSRIFITGNTVIDALLWVRDQVMSSDKLRSELAANYPFIDPDKKMILVTGHRRESFGRGFEEICHALADIATTHQDIQIVYPVHLNPNVREPVNRILGHVKNVILIDPQEYLPFVWLMNHAWLILTDSGGIQEEAPSLGKPVLVMRDTTERPEAVTAGTVRLVGTDKQRIVEEVTRLLKDENEYQAMSRAHNPYGDGQACSRILEALKNNRISL` What is its recorded total protein half-life in vivo? 4.52 h

Consider the sequence shown here: `MNIYTFDFDEIESQEDFYRDFSQTFGLAKDKVRDLDSLWDVLMNDVLPLPLEIEFVHLGEKTRRRFGALILLFDEAEEELEGHLRFNVRH` What is its recorded total protein half-life in vivo? 3.85 h

Consider the sequence shown here: MSHLKDPTTQYYTGEYPKQKQPTPGIQAKMTPVPDCGEKTYVGSGRLKDRKALVTGGDSGIGRAAAIAYAREGADVAISYLPVEEEDAQDVKKIIEECGRKAVLLPGDLSDEKFARSLVHEAHKALGGLDIMALVAGKQVAIPDIADLTSEQFQKTFAINVFALFWLTQEAIPLLPKGASIITTSSIQAYQPSPHLLDYAATKAAILNYSRGLAKQVAEKGIRVNIVAPGPIWTALQISGGQTQDKIPQFGQQTPMKRAGQPAELAPVYVYLASQESSYVTAEVHGVCGGEHLG [P0AG84] What is its recorded total protein half-life in vivo? 5.27 h

Consider the sequence shown here: `MSETAKKVIVGMSGGVDSSVSAWLLQQQGYQVEGLFMKNWEEDDGEEYCTAAADLADAQAVCDKLGIELHTVNFAAEYWDNVFELFLAEYKAGRTPNPDILCNKEIKFKAFLEFAAEDLGADYIATGHYVRRADVDGKSRLLRGLDSNKDQSYFLYTLSHEQIAQSLFPVGELEKPQVRKIAEDLGLVTAKKKDSTGICFIGERKFREFLGRYLPAQPGKIITVDGDEIGEHQGLMYHTLGQRKGLGIGGTKEGTEEPWYVVDKDVENNILVVAQGHEHPRLMSVGLIAQQLHWVDREPFTGTMRCTVKTRYRQTDIPCTVKALDDDRIEVIFDEPVAAVTPGQSAVFYNGEVCLGGGIIEQRLPLPV` What is its recorded total protein half-life in vivo? 4.73 h

Consider the sequence shown here: `MIKLSNITKVFHQGTRTIQALNNVSLHVPAGQIYGVIGASGAGKSTLIRCVNLLERPTEGSVLVDGQELTTLSESELTKARRQIGMIFQHFNLLSSRTVFGNVALPLELDNTPKDEVKRRVTELLSLVGLGDKHDSYPSNLSGGQKQRVAIARALASNPKVLLCDEATSALDPATTRSILELLKDINRRLGLTILLITHEMDVVKRICDCVAVISNGELIEQDTVSEVFSHPKTPLAQKFIQSTLHLDIPEDYQERLQAEPFTDCVPMLRLEFTGQSVDAPLLSETARRFNVNNNIISAQMDYAGGVKFGIMLTEMHGTQQDTQAAIAWLQEHHVKVEVLGYV` What is its recorded total protein half-life in vivo? 6.41 h

Consider the sequence shown here: `MSSYANHQALAGLTLGKSTDYRDTYDASLLQGVPRSLNRDPLGLKADNLPFHGTDIWTLYELSWLNAKGLPQVAVGHVELDYTSVNLIESKSFKLYLNSFNQTRFNNWDEVRQTLERDLSTCAQGKISVALYRLDELEGQPIGHFNGTCIDDQDITIDNYEFTTDYLENATCGEKVVEETLVSHLLKSNCLITHQPDWGSLQIQYRGRQIDREKLLRYLVSFRHHNEFHEQCVERIFNDLLRFCQPEKLSVYARYTRRGGLDINPWRSNSDFVPSTTRLVRQ` What is its recorded total protein half-life in vivo? 5.85 h

Consider the sequence shown here: `MRTTIAVVLGAISLTSAFVFADKPDVARSANDEVSTLFFGHDDRVPVNDTTQSPWDAVGQLETASGNLCTATLIAPNLALTAGHCLLTPPKGKADKAVALRFVSNKGLWRYEIHDIEGRVDPTLGKRLKADGDGWIVPPAAAPWDFGLIVLRNPPSGITPLPLFEGDKAALTAALKAAGRKVTQAGYPEDHLDTLYSHQNCEVTGWAQTSVMSHQCDTLPGDSGSPLMLHTDDGWQLIGVQSSAPAAKDRWRADNRAISVTGFRDKLDQLSQK` What is its recorded total protein half-life in vivo? 5.58 h

Consider the sequence shown here: MTQPLFLIGPRGCGKTTVGMALADSLNRRFVDTDQWLQSQLNMTVAEIVEREEWAGFRARETAALEAVTAPSTVIATGGGIILTEFNRHFMQNNGIVVYLCAPVSVLVNRLQAAPEEDLRPTLTGKPLSEEVQEVLEERDALYREVAHIIIDATNEPSQVISEIRSALAQTINC [P0A6E1] What is its recorded total protein half-life in vivo? 5.49 h

Consider the sequence shown here: MLKQVEIFTDGSCLGNPGPGGYGAILRYRGREKTFSAGYTRTTNNRMELMAAIVALEALKEHCEVILSTDSQYVRQGITQWIHNWKKRGWKTADKKPVKNVDLWQRLDAALGQHQIKWEWVKGHAGHPENERCDELARAAAMNPTLEDTGYQVEV [P0A7Y4] What is its recorded total protein half-life in vivo? 6.46 h

Consider the sequence shown here: `MVLWQSDLRVSWRAQWLSLLIHGLVAAVILLMPWPLSYTPLWMVLLSLVVFDCVRSQRRINARQGEIRLLMDGRLRWQGQEWSIVKAPWMIKSGMMLRLRSDGGKRQHLWLAADSMDEAEWRDLRRILLQQETQR` What is its recorded total protein half-life in vivo? 5.69 h

Consider the sequence shown here: `MTQFNPVDHPHRRYNPLTGQWILVSPHRAKRPWQGAQETPAKQVLPAHDPDCFLCAGNVRVTGDKNPDYTGTYVFTNDFAALMSDTPDAPESHDPLMRCQSARGTSRVICFSPDHSKTLPELSVAALTEIVKTWQEQTAELGKTYPWVQVFENKGAAMGCSNPHPHGQIWANSFLPNEAEREDRLQKEYFAEQKSPMLVDYVQRELADGSRTVVETEHWLAVVPYWAAWPFETLLLPKAHVLRITDLTDAQRSDLALALKKLTSRYDNLFQCSFPYSMGWHGAPFNGEENQHWQLHAHFYPPLLRSATVRKFMVGYEMLAETQRDLTAEQAAERLRAVSDIHFRESGV` What is its recorded total protein half-life in vivo? 3.9 h

Consider the sequence shown here: `MINDIKWVQAQRKATDWRQAVEIATRPLVAYGAAQPCYVNGIIENTLNWGPYYLIAPGIALPHARPEQGANYNQVSITTLRTPVAFGNEECDPVWLLLCVSATDANAHILTIQRISQFIDSPQRLTAVGNASTDDALFALVSG` What is its recorded total protein half-life in vivo? 4.17 h

Source listed as the supplement of paper PMC11246515.
